Biological target: Insulin
Sequence (P01308 25-54, chain 1 of 2): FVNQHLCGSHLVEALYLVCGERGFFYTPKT
Sequence (P01308 90-110, chain 2 of 2): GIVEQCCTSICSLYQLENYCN
Assay: polyreactivity ELISA on insulin coat, 100 nM
MEASURED QUANTITY: Insulin polyreactivity score

binder="MIAB149 (antibody, V domains shown, tested with human Fc; also called MIAB149-001) VH: EVQLLESGGGLVQPGGSLRLSCAASGFTFSDFWMHWVRQAPGKGLEWISYISGDSGYTNYADSVKGRFTISRDNSKNTLYLQMNSLRAEDTAVYYCARDRPYYYYMDVWGKGTTVTVSS VL: DIQMTQSPSSLSASVGDRVTITCRASQSISSSLAWYQQKPGKAPKLLIYAASSLQSGVPSRFSGSGSGTDFTLTISSLQPEDFATYYCQQYKSYPVTFGQGTKVEIK" result=3.53
binder="MIAB170 (antibody, V domains shown, tested with human Fc) VH: EVQLLESGGGLVQPGGSLRLSCAASGFTFSDFWMHWVRQAPGKGLEWISYISGDSGYTNYADSVKGRFTISRDNSKNTLYLQMNSLRAEDTAVYYCARDRPYYYWMDVWGKGTTVTVSS VL: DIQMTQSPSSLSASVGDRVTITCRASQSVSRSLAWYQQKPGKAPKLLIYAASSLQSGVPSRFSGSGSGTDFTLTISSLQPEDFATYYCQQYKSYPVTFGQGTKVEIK" result=4.73
binder="MIAB146 (antibody, V domains shown, tested with human Fc; also called MIAB146-001) VH: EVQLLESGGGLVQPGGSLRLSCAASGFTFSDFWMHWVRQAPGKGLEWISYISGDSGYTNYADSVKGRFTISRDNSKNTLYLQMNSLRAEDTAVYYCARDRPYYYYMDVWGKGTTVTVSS VL: DIQMTQSPSSLSASVGDRVTITCRASQSVSSSLAWYQQKPGKAPKLLIYAASSLQSGVPSRFSGSGSGTDFTLTISSLQPEDFATYYCQQYKSYPVTFGQGTKVEIK" result=2.61
